Protein target, amino acids: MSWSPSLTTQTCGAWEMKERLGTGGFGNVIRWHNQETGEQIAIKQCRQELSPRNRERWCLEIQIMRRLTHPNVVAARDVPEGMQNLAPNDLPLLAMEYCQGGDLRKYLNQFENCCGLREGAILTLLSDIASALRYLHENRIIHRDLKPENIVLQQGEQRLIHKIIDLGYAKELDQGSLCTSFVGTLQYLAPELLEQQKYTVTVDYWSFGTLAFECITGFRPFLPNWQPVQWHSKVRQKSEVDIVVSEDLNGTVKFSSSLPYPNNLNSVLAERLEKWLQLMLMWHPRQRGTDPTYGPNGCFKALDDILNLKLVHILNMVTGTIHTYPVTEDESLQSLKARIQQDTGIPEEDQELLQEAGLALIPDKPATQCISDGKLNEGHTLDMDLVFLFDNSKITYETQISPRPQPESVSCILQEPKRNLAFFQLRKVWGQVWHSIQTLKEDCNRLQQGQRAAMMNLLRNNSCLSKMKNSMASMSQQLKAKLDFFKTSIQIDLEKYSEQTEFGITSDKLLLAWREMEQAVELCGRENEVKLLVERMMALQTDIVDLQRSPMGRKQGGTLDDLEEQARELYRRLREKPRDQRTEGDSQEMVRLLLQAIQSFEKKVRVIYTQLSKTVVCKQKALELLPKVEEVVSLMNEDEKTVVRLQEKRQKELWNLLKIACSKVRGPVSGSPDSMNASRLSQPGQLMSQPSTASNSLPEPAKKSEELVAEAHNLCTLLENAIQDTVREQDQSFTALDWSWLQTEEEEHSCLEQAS
QUANTITY_NAME: pIC50
FYI, pIC50 means -log10 of a concentration in mol per litre.

Determine its reported pIC50: N#Cc1c(C2CCCNC2)cc(-c2ccccc2O)nc1N (stereo not shown) 6.77

Values compiled from paper PMC2957683.
